target under test: aldose reductase (Bos taurus, UniProt P16116)
Construct: preparation of the enzyme from bovine lens; from tissue; host or cells: bovine lens
assay notes: In vitro aldose reductase inhibition (modified Hayman and Kinoshita procedure; enzyme from bovine lens)
Assay type: biochemical
condition details: read-out: % Inhibition IN VITRO 10^-5 M
quantity: inhibition at 10 µM (%)

INSERT INTO measurements (molecule, target_under_test, value_reported) VALUES
  ('CSc1nc(C(C)C)n(CC(=O)O)c(=O)c1C#N [Example 8]', 'aldose reductase (Bos taurus, UniProt P16116)', 96),
  ('Cc1nc(NCC2CCCCC2)c(C#N)c(=O)n1CC(=O)O [Example 16]', 'aldose reductase (Bos taurus, UniProt P16116)', 93),
  ('Cc1nc(-c2cccc3ccccc23)n(CC(=O)O)c(=O)c1C#N [Example 21]', 'aldose reductase (Bos taurus, UniProt P16116)', 87),
  ('CCCCCCSc1nc(C2CCCCC2)n(CC(=O)O)c(=O)c1C#N [Example 5]', 'aldose reductase (Bos taurus, UniProt P16116)', 94),
  ('CC(C)Sc1nc(C(C)C)n(CC(=O)O)c(=O)c1C#N [Example 9]', 'aldose reductase (Bos taurus, UniProt P16116)', 96),
  ('N#Cc1c(SCC2CCCCC2)nc(C2CCCCC2)n(CC(=O)O)c1=O [Example 7]', 'aldose reductase (Bos taurus, UniProt P16116)', 96),
  ('Cc1nc(N2CCC(Cc3ccccc3)CC2)c(C#N)c(=O)n1CC(=O)O [Example 18]', 'aldose reductase (Bos taurus, UniProt P16116)', 90),
  ('CSc1nc(C)n(CC(=O)O)c(=O)c1C#N [Example 11]', 'aldose reductase (Bos taurus, UniProt P16116)', 86),
  ('N#Cc1c(Cc2cccc3ccccc23)nc(-c2cccc3c(Br)cccc23)n(CC(=O)O)c1=O [Example 22]', 'aldose reductase (Bos taurus, UniProt P16116)', 93);
